This listing pairs molecules with measured IC50.
assay: Displacement of [3H]colchicine from tubulin
property.label: IC50 (nM)

[[record]]
smiles_string = "NC(=O)Nc1ccc(-n2c3c(c4ccccc42)C(=O)CCC3)c(Cl)c1"
result = 1610

[[record]]
smiles_string = "CN[C@H]1CCc2cc(OC)c(OC)c(OC)c2-c2ccc(OC)c(=O)cc21"
result = 3580


----------
test system: MCF7; test: Cytotoxicity against human MCF7 cells; assay type: functional
This listing pairs compounds with measured Activity.
property.label: Activity (nM)

[[record]]
compound = "NC(=O)Nc1ccc(-n2c3c(c4ccccc42)C(=O)CCC3)c(Cl)c1"
property_label = "Activity"
unit_descriptor = "nM"
result = 0.87

[[record]]
compound = "NC(=O)c1ccc(-n2c3c(c4ccccc42)C(=O)CCC3)cc1"
property_label = "Activity"
unit_descriptor = "nM"
result = 2300

[[record]]
compound = "NC(=O)c1ccc(-n2c3c(c4ccccc42)C(=O)CCC3)c(Cl)c1"
property_label = "Activity"
unit_descriptor = "nM"
result = 85

[[record]]
compound = "CC(=O)c1cn(-c2ccc(C(N)=O)cc2Cl)c2cc(Cl)ccc12"
property_label = "Activity"
unit_descriptor = "nM"
result = 1.2

[[record]]
compound = "CN[C@H]1CCc2cc(OC)c(OC)c(OC)c2-c2ccc(OC)c(=O)cc21 [DEMECOLCINE]"
property_label = "Activity"
unit_descriptor = "nM"
result = 7.8


----------
tested on: SW-620; assay: Cytotoxicity against human SW620 cells; assay type: functional
Output class 1 for Activity not less than 30 nM; output class 0 otherwise.

[[record]]
smiles_string = "CC(=O)c1cn(-c2ccc(C(N)=O)cc2Cl)c2cc(Cl)ccc12"
system_under_test = "SW-620"
cat = "class 0"

[[record]]
smiles_string = "NC(=O)Nc1ccc(-n2c3c(c4ccccc42)C(=O)CCC3)c(Cl)c1"
system_under_test = "SW-620"
cat = "class 0"

[[record]]
smiles_string = "CN[C@H]1CCc2cc(OC)c(OC)c(OC)c2-c2ccc(OC)c(=O)cc21"
system_under_test = "SW-620"
cat = "class 1"

[[record]]
smiles_string = "NC(=O)c1ccc(-n2c3c(c4ccccc42)C(=O)CCC3)c(Cl)c1"
system_under_test = "SW-620"
cat = "class 1"

[[record]]
smiles_string = "NC(=O)c1ccc(-n2c3c(c4ccccc42)C(=O)CCC3)cc1"
system_under_test = "SW-620"
cat = "class 1"

